# ASSAYED SYSTEM: human alpha-thrombin (human, UniProt P00734;P00734 328-363;364-622)
# PROCEDURE SUMMARY: single-molecule nanopore (carrier dimerization, biphasic Hill fit); apparent sandwich Kd; 100 pM of each carrier; hook effect at high thrombin; Carriers (200 pM total) incubated with protein at 37 °C for 2 h; nanopore measurement in 100 mM KCl, 10 mM Tris-EDTA pH 8.0, -300 mV
pKd: −log10 of the molar value.
ENDPOINT LABEL: pKd

Field request: pKd | item: HD1 carrier + HD22 carrier (thrombin probes 1 and 2) (structured_DNA, 5' phosphate on probes, ligated to carrier) DNA 1: GGGCGGCGACCTTTTTTTGGTTGGTGTGGTTGG DNA 2: GGGCGGCGACCTTTTTTTAGTCCGTGGTAGGGCAGGTTGGGGTGACT ~11.04
